Ki values for 5-hydroxytryptamine receptor 2B (Homo sapiens, UniProt P41595) compiled from several publications are listed below.
# strict inequality: Ki < 5 nM yields class 1, everything else yields class 0

Lab note: confirm whether the reported Ki for this compound is below 5 nM, equality not counting. compound: Cc1ncccc1OC[C@@H]1CN(CC(=O)N2c3ccccc3CC2C)CCO1.Cl (stereo partly shown) class 0

Next compound up: `Cc1c(C)n(Cc2ccc(F)cc2)c2ccc(C(=O)N=C(N)N)cc12` class 1

Next compound up: `NC(N)=NC(=O)c1ccc2c(c1)C1(SCCS1)c1ccsc1-2` class 1

Next compound up: CN(CCCO)C1CCCc2ccc(-c3ccc(C(F)(F)F)cc3)cc21 (stereo not shown) class 0

Next compound up: Cc1sc2ncnc(NC3CCN(C(C)c4cccc(F)c4)CC3)c2c1C (stereo not shown) class 1

Next compound up: CC(NCCCNc1ncnc2sc3c(c12)CCCC3)c1cccc(F)c1 (stereo not shown) class 0

Next compound up: `Cc1c(C(=O)NCCN(C)C)cc(Cc2ccc(F)cc2)n1CCc1ccc(F)cc1` class 0

###

pKi: −log10 of the molar value.
pKi values for 5-hydroxytryptamine receptor 2B (Homo sapiens) compiled from several publications are listed below.
Mark true (1) for reported pKi of 8 or greater; mark false (0) for anything smaller.

Decide: pKi of `Cc1c(S(C)(=O)=O)c2cc(C(=O)N=C(N)N)ccc2n1Cc1ccc(F)cc1` >= 8? true (1)

Next compound up: CC(C)Cc1cc2c(NC3CCN(C(C)c4c(F)cccc4F)CC3)ncnc2s1 (centres unmarked) false (0)

Next compound up: Cc1ncccc1OC[C@H]1CN(CC(=O)N2c3ccccc3CC2C)CCO1 (some centres unmarked) false (0)

Next compound up: CC(C)Cc1cc2c(NC3CCN(C(C)c4cc(F)cc(F)c4)CC3)ncnc2s1 (centres unmarked) true (1)

Next compound up: CC(C)CC(c1cccc(F)c1)N1CCC(Nc2ncnc3sc4c(c23)CCCC4)CC1 (centres unmarked) false (0)

Next compound up: Fc1cccc(C(N2CCC(Nc3ncnc4sc5c(c34)CCCC5)CC2)C(F)(F)F)c1 (centres unmarked) false (0)

Next compound up: CC(C)c1nc(-c2ccc(F)cc2)c2c(n1)C(C)CN(Cc1ccccc1)C2 (centres unmarked) false (0)

Next compound up: `Cc1c(C(=O)N=C(N)N)c(C)n(CCc2ccc(F)cc2)c1C(C)(C)C` true (1)
